Target: purified rhesus macaque MHC class I molecule Mamu-B*17 with human beta2-microglobulin (rhesus macaque | human)
Test: radioligand binding
pIC50: −log10 of the molar value.
Below, each of the binders is paired with its reported pIC50 value.
reported-metric: pIC50

[
  {
    "binder": "SSPLELFML [VACV-WR peptide 51P (SSPLELFML), ORF E9L]",
    "readout-value": 4.93
  },
  {
    "binder": "LTIEAIENYF [VACV-WR peptide 71NP (LTIEAIENYF), ORF L4R]",
    "readout-value": 5.06
  }
]
